Data credit: patent US9765037B2

- method: in vivo
- particulars: mouse, ip
assay.readout: Tmax
The answer consists of two parts: a number and, after it, its unit.

For the compound shown here, `COc1ccc2cc(-c3nn(CC4CCNCC4)c4ncnc(N)c34)ccc2c1` , give the reported Tmax.
40 min

For the compound shown here, `COc1ccc2cc(-c3nn(C(C)C)c4ncnc(N)c34)ccc2c1` , give the reported Tmax.
30 min

====

- System: glioma derived (SF539)
- method: Growth inhibition of human cell line SF539
- particulars: 25 μM
assay.readout: Cell Toxicity SF539, % at 25 μM

For the molecule shown here, CS(=O)(=O)N1CCC(n2nc(Cc3cccc4ccccc34)c3c(N)ncnc32)CC1 [Compound 5p] , give the reported Cell Toxicity SF539, % at 25 μM.
<30% at 25 μM

For the molecule shown here, CC(C)(C)n1nc(-c2ccc3ccccc3c2)c2c(N)ncnc21 [Compound 2] , give the reported Cell Toxicity SF539, % at 25 μM.
<30% at 25 μM

For the molecule shown here, CC(C)n1nc(-c2ccc3ccccc3c2)c2c(N)ncnc21 [Compound 7p] , give the reported Cell Toxicity SF539, % at 25 μM.
84% at 25 μM;

For the molecule shown here, CC(C)n1nc(-c2ccc(Cl)c(Cl)c2)c2c(N)ncnc21 [Compound 7c] , give the reported Cell Toxicity SF539, % at 25 μM.
31% at 25 μM

====

Exercise: for every item that follows, state its recorded IC50.
- target.of.assay: CpCDPK1 (Cryptosporidium parvum (strain Iowa II), UniProt A3FQ16)
- Sequence (A3FQ16 1-538): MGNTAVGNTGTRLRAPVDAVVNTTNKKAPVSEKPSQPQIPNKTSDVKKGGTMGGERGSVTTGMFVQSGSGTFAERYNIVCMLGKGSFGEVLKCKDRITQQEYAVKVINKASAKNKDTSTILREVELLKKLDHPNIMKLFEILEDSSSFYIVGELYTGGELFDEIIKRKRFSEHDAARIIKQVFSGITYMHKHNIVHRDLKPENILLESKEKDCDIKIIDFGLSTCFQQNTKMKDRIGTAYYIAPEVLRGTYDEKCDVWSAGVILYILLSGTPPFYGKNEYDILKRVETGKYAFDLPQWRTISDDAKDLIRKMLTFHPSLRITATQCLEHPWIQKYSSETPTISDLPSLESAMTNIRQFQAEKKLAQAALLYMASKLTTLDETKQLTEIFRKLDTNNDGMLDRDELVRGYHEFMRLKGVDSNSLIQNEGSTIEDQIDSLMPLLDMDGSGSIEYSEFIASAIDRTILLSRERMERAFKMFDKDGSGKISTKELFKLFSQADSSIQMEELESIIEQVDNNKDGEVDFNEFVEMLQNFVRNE
- method: biochemical
- Assay type: biochemical
- particulars: Table 8; read-out: IC50 (μM) CpCDPK1
# value in µM; strip the unit string

Recorded IC50 for CC(C)(C)n1nc(-c2ccc(NC(=O)c3ccccc3)cc2)c2c(N)ncnc21 [Compound 65] with CpCDPK1 (Cryptosporidium parvum (strain Iowa II), UniProt A3FQ16), please?
1.16

Recorded IC50 for CC(C)n1nc(-c2cc3c(Cl)cccc3[nH]2)c2c(N)ncnc21 [Compound 26] with CpCDPK1 (Cryptosporidium parvum (strain Iowa II), UniProt A3FQ16), please?
0.0162

Recorded IC50 for CC(C)c1ccc(-c2nn(C(C)C)c3ncnc(N)c23)cc1 [Compound 7d] with CpCDPK1 (Cryptosporidium parvum (strain Iowa II), UniProt A3FQ16), please?
0.213

Recorded IC50 for CC(C)n1nc(-c2cccc(Cl)c2)c2c(N)ncnc21 [Compound 7b] with CpCDPK1 (Cryptosporidium parvum (strain Iowa II), UniProt A3FQ16), please?
0.115

Recorded IC50 for CC(=O)N1CCC(n2nc(Cc3cccc4ccccc34)c3c(N)ncnc32)CC1 [Compound 5j] with CpCDPK1 (Cryptosporidium parvum (strain Iowa II), UniProt A3FQ16), please?
0.103

Recorded IC50 for CC(C)n1nc(-c2ccc3cc(OCc4cccc(Cl)c4)ccc3c2)c2c(N)ncnc21 [Compound 47] with CpCDPK1 (Cryptosporidium parvum (strain Iowa II), UniProt A3FQ16), please?
0.272

Recorded IC50 for CC(C)n1nc(-c2ccc3cc(OCc4ccc(Cl)cc4)ccc3c2)c2c(N)ncnc21 [Compound 56] with CpCDPK1 (Cryptosporidium parvum (strain Iowa II), UniProt A3FQ16), please?
0.105

Recorded IC50 for CC(C)(C)n1nc(-c2ccc(NC(=O)C3CCCC3)cc2)c2c(N)ncnc21 [Compound 63] with CpCDPK1 (Cryptosporidium parvum (strain Iowa II), UniProt A3FQ16), please?
0.417

Recorded IC50 for CC(C)(C)n1nc(-c2ccc(NC(=O)CCl)cc2)c2c(N)ncnc21 [Compound 58] with CpCDPK1 (Cryptosporidium parvum (strain Iowa II), UniProt A3FQ16), please?
0.588

Recorded IC50 for CC(C)n1nc(-c2ccnc(Cl)c2)c2c(N)ncnc21 [Compound 19] with CpCDPK1 (Cryptosporidium parvum (strain Iowa II), UniProt A3FQ16), please?
0.37

Recorded IC50 for CCOc1ccc2cc(-c3nc(C(C)C)n4ccnc(N)c34)ccc2c1 [Compound 10] with CpCDPK1 (Cryptosporidium parvum (strain Iowa II), UniProt A3FQ16), please?
0.0336

Recorded IC50 for CC(C)C(=O)Nc1ccc(-c2nn(C(C)(C)C)c3ncnc(N)c23)cc1 [Compound 59] with CpCDPK1 (Cryptosporidium parvum (strain Iowa II), UniProt A3FQ16), please?
0.832

Recorded IC50 for CC(C)n1nc(-c2ccc(Cl)cc2)c2c(N)ncnc21 [Compound 7a] with CpCDPK1 (Cryptosporidium parvum (strain Iowa II), UniProt A3FQ16), please?
0.216

Recorded IC50 for CC(C)n1nc(-c2cc3ccccc3[nH]2)c2c(N)ncnc21 [Compound 24] with CpCDPK1 (Cryptosporidium parvum (strain Iowa II), UniProt A3FQ16), please?
0.0704

Recorded IC50 for COc1cc2ccccc2cc1-c1nn(C(C)C)c2ncnc(N)c12 [Compound 7s] with CpCDPK1 (Cryptosporidium parvum (strain Iowa II), UniProt A3FQ16), please?
0.591

Recorded IC50 for CS(=O)(=O)N1CCC(Cn2nc(Cc3cccc4ccccc34)c3c(N)ncnc32)CC1 [Compound 5q] with CpCDPK1 (Cryptosporidium parvum (strain Iowa II), UniProt A3FQ16), please?
0.691

Recorded IC50 for NC(=O)Cn1nc(Cc2cccc3ccccc23)c2c(N)ncnc21 [Compound 5c] with CpCDPK1 (Cryptosporidium parvum (strain Iowa II), UniProt A3FQ16), please?
2.04

Recorded IC50 for CCOc1ccc2cc(-c3nn(CC4CCNCC4)c4ncnc(N)c34)ccc2c1 [Compound 29] with CpCDPK1 (Cryptosporidium parvum (strain Iowa II), UniProt A3FQ16), please?
0.0035

Recorded IC50 for Nc1ncnc2c1c(Cc1cccc3ccccc13)nn2C1CCOCC1 [Compound 15] with CpCDPK1 (Cryptosporidium parvum (strain Iowa II), UniProt A3FQ16), please?
0.265

Recorded IC50 for Nc1ncnc2c1c(Cc1cccc3ccccc13)nn2Cc1c[nH]cn1 [Compound 31] with CpCDPK1 (Cryptosporidium parvum (strain Iowa II), UniProt A3FQ16), please?
0.0936

Recorded IC50 for COc1ccc2[nH]c(-c3nn(C(C)C)c4ncnc(N)c34)cc2c1 [Compound 27] with CpCDPK1 (Cryptosporidium parvum (strain Iowa II), UniProt A3FQ16), please?
0.623

Recorded IC50 for CC(C)(C)C(=O)Nc1ccc(-c2nn(C(C)(C)C)c3ncnc(N)c23)cc1 [Compound 60] with CpCDPK1 (Cryptosporidium parvum (strain Iowa II), UniProt A3FQ16), please?
0.929

Recorded IC50 for CS(=O)(=O)N1CCC(CCn2nc(Cc3cccc4ccccc34)c3c(N)ncnc32)CC1 [Compound 5r] with CpCDPK1 (Cryptosporidium parvum (strain Iowa II), UniProt A3FQ16), please?
0.194

Recorded IC50 for CC(C)CC(=O)Nc1ccc(-c2nn(C(C)(C)C)c3ncnc(N)c23)cc1 [Compound 62] with CpCDPK1 (Cryptosporidium parvum (strain Iowa II), UniProt A3FQ16), please?
0.692

Recorded IC50 for Nc1ncnc2c1c(Cc1cccc3ccccc13)nn2C1CCCC1 [Compound 13] with CpCDPK1 (Cryptosporidium parvum (strain Iowa II), UniProt A3FQ16), please?
0.894

Recorded IC50 for CC(C)n1nc(-c2ccc3c(ccn3C)c2)c2c(N)ncnc21 [Compound 20] with CpCDPK1 (Cryptosporidium parvum (strain Iowa II), UniProt A3FQ16), please?
0.003

Recorded IC50 for CC(C)n1nc(Cc2ccc3ccccc3c2)c2c(N)ncnc21 [Compound 14] with CpCDPK1 (Cryptosporidium parvum (strain Iowa II), UniProt A3FQ16), please?
0.953

Recorded IC50 for CC(C)(C)n1nc(Cc2cccc3ccccc23)c2c(N)ncnc21 [Compound 5d] with CpCDPK1 (Cryptosporidium parvum (strain Iowa II), UniProt A3FQ16), please?
0.144

Recorded IC50 for Nc1ncnc2c1c(-c1cnc3ccccc3c1)nn2CC1CCNCC1 [Compound 30] with CpCDPK1 (Cryptosporidium parvum (strain Iowa II), UniProt A3FQ16), please?
0.0837
